- System: Saccharomyces cerevisiae
- assay-text: Antifungal activity against Saccharomyces cerevisiae W303-1B after 48 hrs by broth microdilution assay
- Assay type: functional
parameter: MIC (µM)
Field format: number, assumed µM, no unit text.

Worked cases, answers included:
Enquiry: For the compound CC/N=c1/cc2oc3cc(NCCCC(=O)OCC)c4ccccc4c3nc-2cc1C , what MIC is on record?
Return: 7.5

Enquiry: For the compound CC/N=c1/cc2oc3cc(NC(=O)C(NC(=O)OC(C)(C)C)C(C)C)c4ccccc4c3nc-2cc1C (stereo unspecified) , what MIC is on record?
Return: 60

Enquiry: For the compound CC/N=c1/cc2oc3cc(NCCC(=O)OCC)c4ccccc4c3nc-2cc1C , what MIC is on record?
Return: 15

Enquiry: For the compound CC/N=c1/cc2oc3cc(NCCC(=O)NC(C)C(=O)OC)c4ccccc4c3nc-2cc1C (stereo unspecified) , what MIC is on record?
Return: 30

Enquiry: For the compound CC/N=c1/cc2oc3cc(NCCCN)c4ccccc4c3nc-2cc1C , what MIC is on record?
Return: 30

Enquiry: For the compound CC/N=c1/cc2oc3cc(NCCC(=O)NC(CCC(=O)OC)C(=O)OC)c4ccccc4c3nc-2cc1C (stereo unspecified) , what MIC is on record?
Return: 120

Continuing:
Enquiry: For the compound CC[N+](CC)=c1ccc2nc3c(cc(NCCC(=O)O)c4ccccc43)oc-2c1 , what MIC is on record?
Return: 120

Enquiry: For the compound CC/N=c1/cc2oc3cc(NCCC(=O)NC(C(=O)OC)C(C)C)c4ccccc4c3nc-2cc1C (stereo unspecified) , what MIC is on record?
Return: 30

====

List of MIC values.
- System: Saccharomyces cerevisiae
- assay-text: Antifungal activity against Saccharomyces cerevisiae W303-1B after 48 hrs by broth microdilution assay
- Assay type: functional
Field format: number, assumed µM, no unit text.

Enquiry: For the compound CC/N=c1/cc2oc3cc(N)c4ccccc4c3nc-2cc1C , what MIC is on record?
Return: 15

Enquiry: For the compound C[N+](C)=c1ccc2nc3c(cc(NCCCO)c4ccccc43)oc-2c1 , what MIC is on record?
Return: 120

Enquiry: For the compound CC/N=c1/cc2oc3cc(NCCOC(=O)C(NC(=O)OC(C)(C)C)C(C)C)c4ccccc4c3nc-2cc1C (stereo not given) , what MIC is on record?
Return: 15

Now for the compound whose MIC we want.
Enquiry: For the compound CC[N+](CC)=c1ccc2nc3c(cc(NCCC(=O)OC)c4ccccc43)oc-2c1 , what MIC is on record?
Return: 15

====

- Test system: Saccharomyces cerevisiae
- assay-text: Antifungal activity against Saccharomyces cerevisiae W303-1B after 48 hrs by broth microdilution assay
- Assay type: functional
List of MIC values.
Field format: number, assumed µM, no unit text.

Worked cases, answers included:
Enquiry: For the compound CC/N=c1/cc2oc3cc(NCCCCl)c4ccccc4c3nc-2cc1C , what MIC is on record?
Return: 3.75

Enquiry: For the compound CC/N=c1/cc2oc3cc(NCCNC(=O)C(NC(=O)OC(C)(C)C)C(C)C)c4ccccc4c3nc-2cc1C (stereo not given) , what MIC is on record?
Return: 15

Enquiry: For the compound CC/N=c1/cc2oc3cc(NCCCC(=O)OCC)c4cc5ccccc5cc4c3nc-2cc1C , what MIC is on record?
Return: 15

Enquiry: For the compound CC/N=c1/cc2oc3cc(NCCC(=O)O)c4ccccc4c3nc-2cc1C , what MIC is on record?
Return: 15

Now for the compound whose MIC we want.
Enquiry: For the compound CC/N=c1/cc2oc3cc(NCCCO)c4ccccc4c3nc-2cc1C , what MIC is on record?
Return: 60

Hello, the source for this data is ChEMBL document CHEMBL1143943, in case you need it.
